# Tested system: human ether-à-go-go-related gene (hERG) potassium channel (human, UniProt Q12809);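 further: peak tail current of the secondary pulse compared with the same well before compound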
# Sequence (Q12809 whole entry, looked up): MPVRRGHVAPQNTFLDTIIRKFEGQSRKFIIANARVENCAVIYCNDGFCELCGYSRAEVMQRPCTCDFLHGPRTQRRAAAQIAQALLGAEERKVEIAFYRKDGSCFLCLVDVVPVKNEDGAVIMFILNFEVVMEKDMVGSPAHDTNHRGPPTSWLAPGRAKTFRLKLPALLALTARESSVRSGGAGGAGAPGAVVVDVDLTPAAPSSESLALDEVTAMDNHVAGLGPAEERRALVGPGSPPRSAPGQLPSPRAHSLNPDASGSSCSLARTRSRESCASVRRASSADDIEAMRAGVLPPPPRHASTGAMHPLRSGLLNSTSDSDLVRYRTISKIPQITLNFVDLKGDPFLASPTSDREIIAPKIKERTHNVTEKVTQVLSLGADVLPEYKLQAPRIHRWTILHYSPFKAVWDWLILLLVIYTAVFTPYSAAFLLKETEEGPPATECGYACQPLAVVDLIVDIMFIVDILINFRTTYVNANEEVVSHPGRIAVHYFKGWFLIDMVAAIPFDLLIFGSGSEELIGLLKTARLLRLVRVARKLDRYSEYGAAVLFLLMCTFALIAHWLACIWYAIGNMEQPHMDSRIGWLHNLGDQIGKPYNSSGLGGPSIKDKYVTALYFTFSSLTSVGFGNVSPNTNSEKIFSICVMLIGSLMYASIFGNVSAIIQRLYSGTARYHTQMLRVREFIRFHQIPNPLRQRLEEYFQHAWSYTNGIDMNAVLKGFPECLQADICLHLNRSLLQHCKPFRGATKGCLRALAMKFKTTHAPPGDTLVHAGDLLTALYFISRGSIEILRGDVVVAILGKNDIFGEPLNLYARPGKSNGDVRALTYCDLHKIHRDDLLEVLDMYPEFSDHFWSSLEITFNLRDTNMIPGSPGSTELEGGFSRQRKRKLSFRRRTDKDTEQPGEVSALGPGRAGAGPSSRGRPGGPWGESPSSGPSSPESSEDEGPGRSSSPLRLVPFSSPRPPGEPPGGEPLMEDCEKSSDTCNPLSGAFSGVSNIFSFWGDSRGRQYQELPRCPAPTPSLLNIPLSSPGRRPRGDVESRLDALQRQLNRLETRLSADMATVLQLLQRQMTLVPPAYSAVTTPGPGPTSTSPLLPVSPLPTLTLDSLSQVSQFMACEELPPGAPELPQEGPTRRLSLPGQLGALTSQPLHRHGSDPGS
# Method description: primary screen, population patch clamp on CHO cells stably expressing hERG; higher = less effect of the substance
Out of some 310,000 compounds screened, about 14,000 (4.5%) showed an effect of 50% or more. The effect is printed as a negative number. The full list was thinned out, with strong results kept by preference.
Reported property: hERG current change (%, negative = inhibition) at 10uM (%)
Report the value in % with no unit label.

                                   compound  value_unit  experimental_value
0  CCCOC(=O)c1ccc(NC(=O)C(=O)NCCN(CC)CC)cc1           %               -52.1

**Q:** Checklist item: hERG current change (%, negative = inhibition) at 10uM tested on human ether-à-go-go-related gene (hERG) potassium channel (human, UniProt Q12809), entry `CCCCOC(=O)c1ccc(NC(=O)C(=O)NCCN(CC)CC)cc1` , value?;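 further: peak tail current of the secondary pulse compared with the same well before compound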
**A:** -73.2

**Q:** And the next one, `CCCOC(=O)c1ccc(NC(=O)COC)cc1` ?
**A:** 1.07

**Q:** And the next one, O=C(O)C(Cc1c[nH]c2ccccc12)NS(=O)(=O)c1ccc(Br)cc1 (stereo not shown) ?
**A:** 8.36

**Q:** And the next one, `CCCOC(=O)c1ccc(NC(=O)/C=C/c2cccs2)cc1` ?
**A:** 0.453

**Q:** And the next one, `Cc1cc(S(=O)(=O)Nc2ccc(N(C)C)cc2)c(C)s1` ?
**A:** 0.71

**Q:** And the next one, `Cc1c(C(=O)OC(C)C)sc(NC(=O)c2cccnc2)c1C#N` ?
**A:** 18.3

**Q:** And the next one, `CCCCOC(=O)c1ccc(NC(=O)C(=O)NCCN(C)C)cc1` ?
**A:** -28.9

**Q:** And the next one, `O=C(CNC(=O)c1cccs1)NCC(=O)OCc1ccc(Cl)cc1` ?
**A:** -17.5

**Q:** And the next one, `COc1cccc(C(=O)CSc2nc3ccccc3n2CC(=O)N(C(C)C)C(C)C)c1` ?
**A:** -5.36
